assay-summary: physchem
cond: 70 °C, organic solvent or mixture, thermodynamic from solid
Experimental: Each polycarboxylic acid was added to the water or acetic acid solution while mixing and kept at the appropriate temperature until the solution became supersaturated as visually determined at least 20 minutes after addition of the polycarboxylic acid.
reported-property: solubility

Exercise: Which value of solubility has been reported for O=C(O)CCCCCCCCCCC(=O)O in the records?
Solution: > 100 mg/mL

###

assay-summary: physchem
cond: 20 °C, organic solvent or mixture, thermodynamic from solid
reported-property: solubility

Exercise: # lookup: solubility of O=C(O)CCCCCCCCCCC(=O)O [DDDA, dodecanedioic acid]
Solution: < 200 µg/mL

###

assay-summary: physchem
cond: 70 °C, water, thermodynamic from solid
reported-property: solubility

Exercise: I would be grateful if you could share the reported solubility for O=C(O)CCCCCCCCCCC(=O)O [DDDA, dodecanedioic acid] .
Solution: < 120 µg/mL

###

assay-summary: physchem
cond: 23 °C, water, thermodynamic from solid
reported-property: solubility

Exercise: Find the recorded solubility belonging to O=C(O)CCCCCCCCCCC(=O)O and report it.
Solution: < 30 µg/mL

###

assay-summary: physchem
cond: water, thermodynamic from solid
reported-property: solubility

Exercise: solubility lookup needed for O=C(O)CCCCCCCCCCC(=O)O , thanks.
Solution: < 1000 µg/mL
